Measured residual activity accompanies every entry in the list below.
- target: EPHA4 (human) (UniProt P54764)
- Sequence (P54764 whole entry, looked up): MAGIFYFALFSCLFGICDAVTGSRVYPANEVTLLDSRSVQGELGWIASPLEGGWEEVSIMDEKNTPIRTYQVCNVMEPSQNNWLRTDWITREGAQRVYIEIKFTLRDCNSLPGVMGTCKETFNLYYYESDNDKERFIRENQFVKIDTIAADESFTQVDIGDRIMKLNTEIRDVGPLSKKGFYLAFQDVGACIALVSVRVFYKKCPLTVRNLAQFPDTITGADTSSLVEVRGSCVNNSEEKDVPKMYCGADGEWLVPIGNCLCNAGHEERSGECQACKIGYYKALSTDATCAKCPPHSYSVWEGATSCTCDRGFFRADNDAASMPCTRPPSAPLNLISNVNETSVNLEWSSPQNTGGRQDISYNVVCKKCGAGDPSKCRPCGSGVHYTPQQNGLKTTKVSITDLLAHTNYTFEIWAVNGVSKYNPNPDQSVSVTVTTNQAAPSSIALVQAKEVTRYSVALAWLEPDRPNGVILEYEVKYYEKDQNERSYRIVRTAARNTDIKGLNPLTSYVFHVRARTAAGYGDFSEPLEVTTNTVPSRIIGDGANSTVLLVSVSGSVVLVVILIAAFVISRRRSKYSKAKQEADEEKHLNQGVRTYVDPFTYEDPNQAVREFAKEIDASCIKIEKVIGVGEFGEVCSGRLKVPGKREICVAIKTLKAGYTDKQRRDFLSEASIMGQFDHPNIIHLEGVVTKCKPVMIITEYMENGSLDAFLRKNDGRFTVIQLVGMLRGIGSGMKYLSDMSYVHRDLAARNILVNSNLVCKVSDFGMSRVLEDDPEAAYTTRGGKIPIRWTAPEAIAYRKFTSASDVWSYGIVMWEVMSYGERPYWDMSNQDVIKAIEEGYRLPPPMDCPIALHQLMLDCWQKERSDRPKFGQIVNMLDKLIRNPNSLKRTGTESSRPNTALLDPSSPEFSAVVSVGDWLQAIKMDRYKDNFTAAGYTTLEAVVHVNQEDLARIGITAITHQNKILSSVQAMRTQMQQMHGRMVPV
- assay: radiometric filter-binding kinase assay, Kinase HotSpot
- measurementParameters: compound 0.5 µM; ATP 10 µM
Please respond with the number in % and leave the unit unwritten.

compound	measurementUnit	residual activity
CSc1nc(-c2ccc(F)cc2)c(-c2ccnc(NC(C)c3ccccc3)c2)[nH]1 (stereo not given)	%	93.1
COc1ccc(-c2cnc3c(-c4ccsc4)cnn3c2)cc1	%	87.6
Nc1n[nH]c2nnc(-c3c(-c4ccccc4)nn4ccccc34)cc12	%	85.9
Cc1cc2ncc(-c3ccccc3)nc2cc1C	%	95.4
CS(=O)c1ccc(-c2nc(-c3ccc(F)cc3)c(-c3ccncc3)[nH]2)cc1 (stereo not given)	%	95.6
O=C1Nc2cc(Br)ccc2/C1=C1/Nc2ccccc2/C1=N\O	%	90.2
O=c1cc(N2CCNCC2)oc2c(-c3ccccc3)cccc12	%	100
Oc1ccc(-c2nc(-c3ccc(F)cc3)c(-c3ccncc3)[nH]2)cc1	%	96.2
CC(C)n1cnc2c(Nc3cccc(Cl)c3)nc(NCCO)nc21	%	87.5
CC(C)[C@H](CO)Nc1nc(Nc2cccc(Cl)c2)c2ncn(C(C)C)c2n1	%	102

Query residual activity for "O=C(Nc1ccc(Cl)cc1)c1ccccc1NCc1ccncc1"
96.5

Query residual activity for "Nc1nc(Nc2ccc(S(N)(=O)=O)cc2)nn1C(=S)Nc1c(F)cccc1F"
54.8

Query residual activity for "O=C1Nc2ccccc2/C1=C\c1c(Cl)[nH]c2ccccc12"
93.4

Query residual activity for "O=C1Cc2c([nH]c3ccc([N+](=O)[O-])cc23)-c2ccccc2N1"
96.5

Query residual activity for "CCCNC(=O)Nc1ccc(Oc2ncnc3cc(OC)c(OC)cc23)cc1Cl"
93.4
